target: human recombinant BACE2 (Homo sapiens (Human), UniProt Q9Y5Z0); assay: In vitro enzymatic BACE2 FRET assay; assay type: biochemical; settings: read-out: IC50 IP (μM) BACE2 enzyme
Sequence (Q9Y5Z0 63-518): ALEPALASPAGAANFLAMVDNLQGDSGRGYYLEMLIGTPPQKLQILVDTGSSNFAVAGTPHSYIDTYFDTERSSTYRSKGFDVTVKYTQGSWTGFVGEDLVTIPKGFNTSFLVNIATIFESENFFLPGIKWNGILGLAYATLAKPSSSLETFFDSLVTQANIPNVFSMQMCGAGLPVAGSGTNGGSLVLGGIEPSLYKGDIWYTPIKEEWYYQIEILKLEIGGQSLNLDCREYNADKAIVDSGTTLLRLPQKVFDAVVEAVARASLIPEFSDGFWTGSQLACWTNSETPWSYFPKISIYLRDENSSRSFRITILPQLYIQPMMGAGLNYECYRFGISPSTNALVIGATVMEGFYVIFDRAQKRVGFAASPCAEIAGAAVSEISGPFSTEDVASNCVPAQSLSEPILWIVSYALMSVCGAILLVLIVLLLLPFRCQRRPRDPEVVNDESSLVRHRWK

SMILES NOTATION: N#CCC[C@]12C[C@H]1[C@@](CF)(c1cc(NC(=O)c3ccc(Cl)cn3)ccc1F)N=C(N)S2
INEQUALITY SIGN: <
IC50 [µM]: 0.00203
//
SMILES NOTATION: C[C@]1(c2cc(NC(=O)c3cnc(OCc4ncco4)cn3)ccc2F)N=C(N)S[C@@]2(C(=O)NC3CC3)C[C@H]21
INEQUALITY SIGN: =
IC50 [µM]: 0.015
//
SMILES NOTATION: Cc1cc(OCC(F)(F)F)cnc1C(=O)Nc1cc(F)c(F)c([C@@]2(C)N=C(N)S[C@@]3(CF)C[C@H]32)c1
INEQUALITY SIGN: =
IC50 [µM]: 0.579
//
SMILES NOTATION: C#CCOc1cnc2c(Nc3ccc(F)c([C@@]4(CF)N=C(N)S[C@@]5(CC#N)C[C@H]54)c3)nccc2n1
INEQUALITY SIGN: =
IC50 [µM]: 0.0273
//
SMILES NOTATION: C[C@]1(c2cc(Nc3nccc4nc(OCc5cocn5)cnc34)ccc2F)N=C(N)S[C@]2(CO)[C@H]1C2(F)F
INEQUALITY SIGN: =
IC50 [µM]: 0.0294
//
SMILES NOTATION: C#CCOc1cnc2c(Nc3cc(F)c(F)c([C@@]4(C)N=C(N)S[C@@]5(COC)C[C@H]54)c3)nccc2n1
INEQUALITY SIGN: =
IC50 [µM]: 0.0384
//
SMILES NOTATION: COC[C@]12C[C@H]1[C@@](C)(c1cc(NC(=O)c3ccc(Cl)cn3)ccc1F)N=C(N)S2
INEQUALITY SIGN: =
IC50 [µM]: 0.0061
//
SMILES NOTATION: COC(=O)c1cc(NC(=O)c2ccc(Cl)cn2)cc([C@@]2(C)N=C(N)S[C@@]3(C(=O)OC)C[C@H]32)c1F
INEQUALITY SIGN: =
IC50 [µM]: 0.0224
//
SMILES NOTATION: COC[C@@]12SC(N)=N[C@](C)(c3cc(Nc4ncnc5cc(C#N)cnc45)ccc3F)[C@@H]1C2(F)F
INEQUALITY SIGN: =
IC50 [µM]: 0.0257
//
SMILES NOTATION: Cc1cc(OCc2ncco2)cnc1C(=O)Nc1ccc(F)c([C@@]2(C)N=C(N)S[C@@]3(C(F)F)C[C@@H]23)c1
INEQUALITY SIGN: =
IC50 [µM]: 0.114
//
SMILES NOTATION: C#CCOc1cnc(C(=O)Nc2cc(F)c(F)c([C@@]3(C)N=C(N)S[C@@]4(C#N)C[C@H]43)c2)c(C)c1
INEQUALITY SIGN: =
IC50 [µM]: 0.00764
//
SMILES NOTATION: [2H]C([2H])([2H])C#CC([2H])([2H])Oc1cnc2c(Nc3cnc(F)c([C@@]4(C)N=C(N)S[C@@]5(CF)C[C@H]54)c3)nccc2n1
INEQUALITY SIGN: =
IC50 [µM]: 0.0123
//
SMILES NOTATION: C[C@]1(c2cc(NC(=O)c3cnc(OCC(F)(F)F)cn3)cc(F)c2F)N=C(N)S[C@@]2(CF)C[C@H]21
INEQUALITY SIGN: =
IC50 [µM]: 0.0601
//
SMILES NOTATION: C[C@]1(c2cc(Nc3ncnc4cc(OCc5ncco5)cnc34)cnc2F)N=C(N)S[C@]2(CO)[C@H]1C2(F)F
INEQUALITY SIGN: =
IC50 [µM]: 0.046
//
SMILES NOTATION: NC1=N[C@](CF)(c2cc(NC(=O)c3cnc(OCc4ncco4)cn3)ccc2F)[C@@H]2C[C@]2(c2cnco2)S1
INEQUALITY SIGN: =
IC50 [µM]: 0.00245
//
SMILES NOTATION: C/C(=C/[C@]12C[C@H]1[C@@](CF)(c1cc(NC(=O)c3ccc(Cl)cn3)ccc1F)N=C(N)S2)C(=O)N1CCOCC1
INEQUALITY SIGN: <
IC50 [µM]: 0.00203
//
SMILES NOTATION: COC[C@]12C[C@H]1[C@@](C)(c1cc(NC(=O)c3cnc(OCC4(C)CC4)cn3)cc(F)c1F)N=C(N)S2
INEQUALITY SIGN: =
IC50 [µM]: 0.17
//
SMILES NOTATION: COC[C@]12C[C@H]1[C@@](C)(c1cc(Nc3nccc4nc(OCc5ncco5)cnc34)cc(F)c1F)N=C(N)S2
INEQUALITY SIGN: =
IC50 [µM]: 0.055
//
SMILES NOTATION: C#CCOc1cnc(C(=O)Nc2ccc(F)c([C@@]3(CF)N=C(N)S[C@@]4(c5c[nH]nn5)C[C@@H]34)c2)cn1
INEQUALITY SIGN: <
IC50 [µM]: 0.00203
//
SMILES NOTATION: C[C@]1(c2cc(NC(=O)c3ccc(Cl)cn3)cnc2F)N=C(N)S[C@@]2(C(F)F)C[C@@H]12
INEQUALITY SIGN: <
IC50 [µM]: 0.00203
//
SMILES NOTATION: C#CCOc1cnc(C(=O)Nc2cc(C)c(F)c([C@@]3(C)N=C(N)S[C@@]4(C(F)F)C[C@@H]34)c2)cn1
INEQUALITY SIGN: =
IC50 [µM]: 0.00983
//
SMILES NOTATION: C#CCOc1cnc(C(=O)Nc2ccc(F)c([C@@]3(C)N=C(N)S[C@@]4(CF)C[C@H]43)c2)c(C)n1
INEQUALITY SIGN: =
IC50 [µM]: 0.00801
//
SMILES NOTATION: C#CCOc1cnc2c(Nc3ccc(F)c([C@@]4(C)N=C(N)S[C@@]5(CF)C[C@H]54)c3)ncnc2c1
INEQUALITY SIGN: =
IC50 [µM]: 0.0842
//
SMILES NOTATION: COC[C@H](C)Oc1cnc(C(=O)Nc2cc(F)c(F)c([C@@]3(C)N=C(N)S[C@@]4(C#N)C[C@H]43)c2)cn1
INEQUALITY SIGN: =
IC50 [µM]: 0.0669
//
SMILES NOTATION: C#C[C@H](C)Oc1cnc(C(=O)Nc2cc(F)c(F)c([C@@]3(C)N=C(N)S[C@@]4(C#N)C[C@H]43)c2)cn1
INEQUALITY SIGN: =
IC50 [µM]: 0.00908
//
SMILES NOTATION: C[C@]1(c2cc(Nc3ncnc4cc(OCc5ncco5)cnc34)cc(F)c2F)N=C(N)S[C@@]2(C(N)=O)C[C@H]21
INEQUALITY SIGN: =
IC50 [µM]: 0.0389
//
SMILES NOTATION: C#CCOc1cnc2c(Nc3cc(F)c(F)c([C@@]4(C)N=C(N)S[C@@]5(COC)C[C@H]54)c3)ncc(F)c2c1
INEQUALITY SIGN: =
IC50 [µM]: 0.0497

###

Entries annotated with measured log10 IC50
target: human recombinant BACE1 (Homo sapiens (Human)); test: In vitro enzymatic BACE1 FRET assay; format: biochemical; conditions: read-out: IC50 IP (μM) BACE1 enzyme
Sequence (P56817 46-501): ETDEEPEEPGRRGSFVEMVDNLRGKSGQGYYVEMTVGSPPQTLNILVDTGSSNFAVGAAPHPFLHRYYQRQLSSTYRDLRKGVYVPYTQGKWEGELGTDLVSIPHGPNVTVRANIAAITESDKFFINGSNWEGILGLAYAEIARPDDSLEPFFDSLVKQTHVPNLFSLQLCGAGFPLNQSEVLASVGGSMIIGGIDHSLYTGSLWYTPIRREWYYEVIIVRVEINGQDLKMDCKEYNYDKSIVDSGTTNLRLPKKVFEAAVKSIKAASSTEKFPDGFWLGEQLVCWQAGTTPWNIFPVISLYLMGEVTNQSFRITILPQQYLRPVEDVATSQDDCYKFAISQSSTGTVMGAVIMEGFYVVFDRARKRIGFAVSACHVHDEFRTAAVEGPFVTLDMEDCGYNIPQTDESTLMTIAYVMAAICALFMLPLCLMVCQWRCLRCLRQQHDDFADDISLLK
MEASURE NAME: log10 IC50 (log10 of the value in µM)

SMILES NOTATION: COC[C@]12C[C@H]1[C@@](C)(c1cc(NC(=O)c3cnc(OCCF)cn3)ccc1F)N=C(N)S2
log10 IC50: -1.80
//
SMILES NOTATION: N#CC[C@]12C[C@H]1[C@@](CF)(c1cc(NC(=O)c3ccc(Cl)cn3)ccc1F)N=C(N)S2
log10 IC50: -2.44
//
SMILES NOTATION: CC#CCOc1cnc2c(Nc3cc(F)c(F)c([C@@]4(C)N=C(N)S[C@@]5(COC)C[C@H]54)c3)nccc2n1
log10 IC50: -3.14
//
SMILES NOTATION: C[C@]1(c2cc(NC(=O)c3cnc(OCc4ncco4)cn3)cc(F)c2F)N=C(N)S[C@@]2(S(C)(=O)=O)C[C@H]21
log10 IC50: -3.20
//
SMILES NOTATION: CC(C)(O)[C@]12C[C@H]1[C@@](C)(c1cc(Nc3ncnc4cc(C#N)cnc34)cc(F)c1F)N=C(N)S2
log10 IC50: -1.59
//
SMILES NOTATION: CNC(=O)[C@]12C[C@H]1[C@@](C)(c1cc(NC(=O)c3ccc(OCC(F)(F)F)cn3)cc(F)c1F)N=C(N)S2
log10 IC50: -2.94
//
SMILES NOTATION: C#CCOc1cnc(C(=O)Nc2ccc(F)c([C@@]3(C)N=C(N)S[C@@]4(CF)C[C@H]43)c2)c(C)n1
log10 IC50: -3.11
//
SMILES NOTATION: C#CCOc1cnc2c(Nc3ccc(F)c([C@@]4(C)N=C(N)S[C@@]5(C(F)F)C[C@@H]45)c3)ncnc2c1
log10 IC50: -3.09
//
SMILES NOTATION: Cc1ccnc(COc2cnc3c(Nc4cc(F)c(F)c([C@@]5(C)N=C(N)S[C@@]6(C(F)F)C[C@@H]56)c4)nccc3n2)n1
log10 IC50: -2.44
//
SMILES NOTATION: C[C@]1(c2cc(Nc3nccc4[nH]c(=O)cnc34)cnc2F)N=C(N)S[C@H]2C[C@H]21
log10 IC50: -1.20
//
SMILES NOTATION: C#CCOc1cnc2c(Nc3cc(F)c(F)c([C@@]4(C)N=C(N)S[C@@]5(COC)C[C@H]54)c3)ncnc2c1
log10 IC50: -2.65
//
SMILES NOTATION: C#CCOc1cnc2c(Nc3ccc(F)c([C@@]4(C)N=C(N)S[C@@]5([C@H](O)C(F)(F)F)C[C@H]54)c3)nccc2n1
log10 IC50: -3.03
//
SMILES NOTATION: C#CCOc1cnc2c(Nc3ccc(F)c([C@@]4(C)N=C(N)S[C@@]5(C#N)C[C@H]54)c3)ncnc2c1
log10 IC50: -2.85
//
SMILES NOTATION: C[C@]1(c2cc(Nc3nccc4nc(OCc5ncco5)cnc34)cnc2F)N=C(N)S[C@@]2(CF)C[C@H]21
log10 IC50: -3.06
//
SMILES NOTATION: COC[C@]12C[C@H]1[C@@](C)(c1cc(Nc3nccc4cc(OCC#CC(F)(F)F)cnc34)cc(F)c1F)N=C(N)S2
log10 IC50: -1.57
//
SMILES NOTATION: C#C[C@@H](C)Oc1cnc(C(=O)Nc2ccc(F)c([C@@]3(C)N=C(N)S[C@@]4(COC)C[C@H]43)c2)cn1
log10 IC50: -1.67
//
SMILES NOTATION: NC1=N[C@](CF)(c2cc(Nc3nccc4nc(OCc5ncco5)cnc34)cc(F)c2F)[C@@H]2C[C@@H]2S1
log10 IC50: -2.59
//
SMILES NOTATION: CC(=O)[C@]12C[C@H]1[C@@](C)(c1cc(NC(=O)c3ccc(Cl)cn3)cc(F)c1F)N=C(N)S2
log10 IC50: -2.39
//
SMILES NOTATION: COC[C@]12C[C@H]1[C@@](C)(c1cc(NC(=O)c3cnc(OCC4COC4)cn3)ccc1F)N=C(N)S2
log10 IC50: -2.10
//
SMILES NOTATION: C[C@]1(c2cc(NC(=O)c3cnc(OCC(F)(F)C(F)F)cn3)cnc2F)N=C(N)S[C@@]2(CF)C[C@H]21
log10 IC50: -2.75
//
SMILES NOTATION: [2H]C([2H])([2H])OC[C@]12C[C@H]1[C@@](C)(c1cc(Nc3ncnc4cc(Cl)cnc34)cnc1F)N=C(N)S2
log10 IC50: -1.90
//
SMILES NOTATION: C#CCCOc1cnc(C(=O)Nc2ccc(F)c([C@@]3(C)N=C(N)S[C@@]4(COC)C[C@H]43)c2)cn1
log10 IC50: -2.11
//
SMILES NOTATION: C#CCOc1cnc2c(Nc3cc(F)c(F)c([C@@]4(C)N=C(N)S[C@@]5(C(=O)N6CCCC6)C[C@H]54)c3)ncnc2c1
log10 IC50: -3.28
//
SMILES NOTATION: COC[C@H](C)Oc1cnc(C(=O)Nc2ccc(F)c([C@@]3(C)N=C(N)S[C@@]4(C(F)F)C[C@@H]34)c2)cn1
log10 IC50: -2.28
//
SMILES NOTATION: C#C[C@H](C)Oc1cnc(C(=O)Nc2cc(F)c(F)c([C@@]3(C)N=C(N)S[C@@]4(C(F)F)C[C@@H]34)c2)c(C)n1
log10 IC50: -2.45
//
SMILES NOTATION: C#C[C@H](C)Oc1cnc(C(=O)Nc2ccc(F)c([C@@]3(C)N=C(N)S[C@@]4(COC)C[C@H]43)c2)c(C)n1
log10 IC50: -1.95
//
SMILES NOTATION: COC[C@]12C[C@H]1[C@@](C)(c1cc(NC(=O)c3ccc(Cl)cn3)ccc1F)N=C(N)S2
log10 IC50: -2.39

Recorded values, source patent US20160046618A1.
